These entries and their values trace back to the kinase profiling compilation of Christmann-Franck et al. (2016).

Hi there, I'd appreciate the recorded residual activity for every entry that follows.
# target_entity: AKT2 (human)
# method_summary: radiometric filter-binding kinase assay, Kinase HotSpot
# stated_conditions: compound 0.5 µM; ATP 10 µM
Numeric answer only, unit % assumed.

For reference, reported residual activity for Cc1cccc(-c2nc(C(C)(C)C)[nH]c2-c2ccc3c(c2)OCO3)n1 stands at 80.1

For reference, reported residual activity for O=C1NC(=O)c2c1c1c3ccccc3[nH]c1n1cncc21 stands at 121

For reference, reported residual activity for c1ccc2c(-c3ccncc3)c[nH]c2c1 stands at 96.4

For reference, reported residual activity for Fc1ccc(-c2nc3n(c2-c2ccncc2)CCS3)cc1 stands at 95.9

For reference, reported residual activity for COc1cc2ncnc(Nc3ccc(OCc4ccccc4)cc3)c2cc1OC stands at 101

For reference, reported residual activity for O=C1C(Cl)=C(N2C(=O)CCC2=O)C(=O)c2ccccc21 stands at 96.3

For reference, reported residual activity for CN(C)CCCn1cc(C2=C(c3c[nH]c4ccccc34)C(=O)NC2=O)c2ccccc21 stands at 88.7

For reference, reported residual activity for O=C1c2ccccc2-c2nc3nnnn3nc21 stands at 55.8

For reference, reported residual activity for N#Cc1c[nH]c2c[nH]/c(=N\Cc3cccnc3)cc2/c1=N\c1ccc(F)c(Cl)c1 stands at 101

For reference, reported residual activity for Cc1cncc2cccc(S(=O)(=O)N3CCCN(C(=O)CN)C[C@H]3C)c12 stands at 97.2

For reference, reported residual activity for COc1ccc(Cl)cc1NC(=O)Nc1cc(C)nc2ccccc12 stands at 94.9

For reference, reported residual activity for CN(C)c1ccc(/C=C2\C(=O)Nc3ccccc32)cc1 stands at 98.1

For reference, reported residual activity for CCCCc1c(-c2ccc(OC)cc2)[nH]c2nccnc12 stands at 93.8

For reference, reported residual activity for O=C1Nc2ccc(Br)cc2/C1=C\c1cc2c([nH]1)CCCC2 stands at 90.3

For reference, reported residual activity for O=C(c1cc2cc(O)ccc2[nH]1)c1cc2cc(O)ccc2[nH]1 stands at 104

For reference, reported residual activity for Cc1nc(-c2ccccc2)c(-c2ccncc2)o1 stands at 96.7

For reference, reported residual activity for NC(=O)c1cccc(-c2cc(Nc3ccc(OC(F)(F)F)cc3)ncn2)c1 stands at 105

For reference, reported residual activity for COc1ccc(S(=O)(=O)N(CCO)c2ccccc2CN(C)C/C=C/c2ccc(Cl)cc2)cc1 stands at 106

For reference, reported residual activity for CN(C)S(=O)(=O)c1ccc2c(c1)/C(=C/c1cc3c([nH]1)CCCC3)C(=O)N2 stands at 105

For reference, reported residual activity for C[C@@H]1CCN(C(=O)CC#N)C[C@@H]1N(C)c1ncnc2[nH]ccc12 stands at 98

For reference, reported residual activity for CC(C)(C)c1cc(C=C(C#N)C#N)cc(Br)c1O stands at 97.7

For reference, reported residual activity for COc1cc2ncnc(Nc3ccc(Oc4ccccc4)cc3)c2cc1OC stands at 99.4

For reference, reported residual activity for COc1ccc2c(c1)c(C1=C(c3c[nH]c4ccccc34)C(=O)NC1=O)cn2CCCN(C)C stands at 110
